# tested target: UniProt:P00803
# Sequence (P00803 whole entry): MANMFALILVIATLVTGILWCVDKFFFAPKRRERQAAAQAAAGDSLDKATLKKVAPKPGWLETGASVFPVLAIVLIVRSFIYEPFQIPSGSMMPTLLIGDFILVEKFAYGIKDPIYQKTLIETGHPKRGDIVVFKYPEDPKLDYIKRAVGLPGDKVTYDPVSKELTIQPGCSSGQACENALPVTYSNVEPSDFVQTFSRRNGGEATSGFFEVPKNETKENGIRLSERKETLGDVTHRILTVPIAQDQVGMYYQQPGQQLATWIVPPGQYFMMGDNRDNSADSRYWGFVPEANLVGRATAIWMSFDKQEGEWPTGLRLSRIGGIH
# assay method text: Inhibition of LepB in Escherichia coli IMP assessed as antibacterial activity by measuring reduction in bacterial growth incubated for 18 hrs by two-fold serial dilution method
Reported log10 MIC values follow for various compounds
reported endpoint: log10 MIC (log10 of the value in µg/mL)

test smiles	log10 MIC
CCCCCCCCCCC(=O)N[C@@H](CCN)C(=O)N(C)[C@@H]1C(=O)N[C@@H](C)C(=O)N[C@H](C(=O)NCC#N)Cc2ccc(OCCN)c(c2)-c2cc1ccc2OCCN	-1.64
Cc1cc(-c2ccc(CC(C)C)cc2)ccc1C(=O)N[C@@H](CCN)C(=O)N(C)[C@@H]1C(=O)N[C@@H](C)C(=O)N[C@H](C(=O)NCC#N)Cc2ccc(OCCN)c(c2)-c2cc1ccc2OCCN	-2.22
CCCCCCCC(=O)N[C@@H](CCN)C(=O)N(C)[C@@H]1C(=O)N[C@@H](C)C(=O)N[C@H](C(=O)NCC#N)Cc2ccc(OCCN)c(c2)-c2cc1ccc2OCCN	-0.46
CNc1nc(-c2ccc(C(C)(C)C)cc2)ncc1C(=O)N[C@@H](CCN)C(=O)N(C)[C@@H]1C(=O)N[C@@H](C)C(=O)N[C@H](C(=O)NCC#N)Cc2ccc(OCCN)c(c2)-c2cc1ccc2OCCN	-2.15
CCCCCCCCCCCCC(=O)N[C@@H](CCN)C(=O)N(C)[C@@H]1C(=O)N[C@@H](C)C(=O)N[C@H](C(=O)NCC#N)Cc2ccc(OCCN)c(c2)-c2cc1ccc2OCCN	-2.15
Cc1cc(-c2ccccc2)ccc1C(=O)N[C@@H](CCN)C(=O)N(C)[C@@H]1C(=O)N[C@@H](C)C(=O)N[C@H](C(=O)NCC#N)Cc2ccc(OCCN)c(c2)-c2cc1ccc2OCCN	-1.64
Cc1nc(-c2ccc(C(C)(C)C)cc2)cc(N)c1C(=O)N[C@@H](CCN)C(=O)N(C)[C@@H]1C(=O)N[C@@H](C)C(=O)N[C@H](C(=O)NCC#N)Cc2ccc(OCCN)c(c2)-c2cc1ccc2OCCN	-2.15
Cc1nc(-c2ccc(C(C)(C)C)cc2)nc(N)c1C(=O)N[C@@H](CCN)C(=O)N(C)[C@@H]1C(=O)N[C@@H](C)C(=O)N[C@H](C(=O)NCC#N)Cc2ccc(OCCN)c(c2)-c2cc1ccc2OCCN	-2.30
Cc1cc(-c2ccc(-c3ccccc3)cc2)ccc1C(=O)N[C@@H](CCN)C(=O)N(C)[C@@H]1C(=O)N[C@@H](C)C(=O)N[C@H](C(=O)NCC#N)Cc2ccc(OCCN)c(c2)-c2cc1ccc2OCCN	-1.37
CC(C)CCc1ccc(-c2ccc(C(=O)N[C@@H](CCN)C(=O)N(C)[C@@H]3C(=O)N[C@@H](C)C(=O)N[C@H](C(=O)NCC#N)Cc4ccc(OCCN)c(c4)-c4cc3ccc4OCCN)cc2)cc1	-1.82
C[C@@H]1NC(=O)[C@@H](N(C)C(=O)[C@H](CCN)NC(=O)c2ccc(-c3ccc(C(C)(C)C)cc3)nc2N)c2ccc(OCCN)c(c2)-c2cc(ccc2OCCN)C[C@@H](C(=O)NCC#N)NC1=O	-1.96
CCCCCCCCCCCCCC(=O)N[C@@H](CCN)C(=O)N(C)[C@@H]1C(=O)N[C@@H](C)C(=O)N[C@H](C(=O)NCC#N)Cc2ccc(OCCN)c(c2)-c2cc1ccc2OCCN	-1.85
Cc1cc(-c2ccc(C(F)(F)F)cc2)ccc1C(=O)N[C@@H](CCN)C(=O)N(C)[C@@H]1C(=O)N[C@@H](C)C(=O)N[C@H](C(=O)NCC#N)Cc2ccc(OCCN)c(c2)-c2cc1ccc2OCCN	-1.85
Cc1cc(-c2ccc(C(C)(C)C)cc2)nc(N)c1C(=O)N[C@@H](CCN)C(=O)N(C)[C@@H]1C(=O)N[C@@H](C)C(=O)N[C@H](C(=O)NCC#N)Cc2ccc(OCCN)c(c2)-c2cc1ccc2OCCN	-2.15
CCCCCCCCCC(=O)N[C@@H](CCN)C(=O)N(C)[C@@H]1C(=O)N[C@@H](C)C(=O)N[C@H](C(=O)NCC#N)Cc2ccc(OCCN)c(c2)-c2cc1ccc2OCCN	-1.00
CCc1ccc(-c2ccc(C(=O)N[C@@H](CCN)C(=O)N(C)[C@@H]3C(=O)N[C@@H](C)C(=O)N[C@H](C(=O)NCC#N)Cc4ccc(OCCN)c(c4)-c4cc3ccc4OCCN)c(C)c2)cc1	-2.10
CCCCCCCCC(=O)N[C@@H](CCN)C(=O)N(C)[C@@H]1C(=O)N[C@@H](C)C(=O)N[C@H](C(=O)NCC#N)Cc2ccc(OCCN)c(c2)-c2cc1ccc2OCCN	-0.92
C[C@@H]1NC(=O)[C@@H](N(C)C(=O)[C@H](CCN)NC(=O)c2cnc(-c3ccc(C(C)(C)C)cc3)cc2N)c2ccc(OCCN)c(c2)-c2cc(ccc2OCCN)C[C@@H](C(=O)NCC#N)NC1=O	-1.96
Cc1nc(-c2ccc(C(C)(C)C)cc2)ncc1C(=O)N[C@@H](CCN)C(=O)N(C)[C@@H]1C(=O)N[C@@H](C)C(=O)N[C@H](C(=O)NCC#N)Cc2ccc(OCCN)c(c2)-c2cc1ccc2OCCN	-2.40
Cc1cc(-c2ccc(C(C)(C)C)cc2)cc(C)c1C(=O)N[C@@H](CCN)C(=O)N(C)[C@@H]1C(=O)N[C@@H](C)C(=O)N[C@H](C(=O)NCC#N)Cc2ccc(OCCN)c(c2)-c2cc1ccc2OCCN	-2.30
